Experiment: RP, Thermo Scientific Acclaim RSLC 120 C18, 100 × 2.1 mm, 2.2 µm, 30 °C, 0.2 mL/min, estimated dead time 1.1 min; A: water + 0.1% formic acid, pH 2.6; B: methanol + 0.1% formic acid, pH 2.6; gradient (min/%B) 0/10 4/50 17/95 25/95 25.1/10 30/10
Conditions: stereoisomer not certain
Please respond with T when measured LC retention time is strictly beneath 5 min, and with F in all other cases.

Prompt: Is LC retention time of Nc1nnc(-c2cccc(Cl)c2Cl)c(N)n1 strictly below 5 min?
Response: F

Prompt: And for CC(C)Cc1ccc(C(C)C(=O)O)cc1 (stereo not given) ?
Response: F

Prompt: Can you check CCNCC(=O)Nc1c(C)cccc1C next?
Response: T

Prompt: Follow-up item: CCN(CC)C(=O)Nc1ccc(OCC(O)CNC(C)(C)C)c(C(C)=O)c1 (stereo not given)
Response: F

Prompt: Now the molecule CN1CCCC1c1cccnc1 (stereo not given)
Response: T

Prompt: How about this molecule: CC(C)(C)NCC(O)c1ccc(O)c(CO)c1 (stereo not given)
Response: T

Prompt: Repeat with CC12CC3CC(C)(C1)CC(N)(C3)C2 [Memantine]
Response: F

Prompt: Moving on to CCC(C)OC(=O)N1CCCCC1CCO (stereo not given)
Response: F

Prompt: Param item: CCCCC(CC)COC(=O)C(C#N)=C(c1ccccc1)c1ccccc1 (stereo not given)
Response: F

Prompt: Then this molecule: CC12CCC(O)CC1CCC1C2C(=O)CC2(C)C1CCC2(O)C(=O)CO (stereo not given)
Response: F

Prompt: Next up: COc1ccc(C(=O)c2ccccc2)c(O)c1 [Benzophenon 3 (=2-Hydroxy-4-methoxybenzophenon)]
Response: F

Prompt: Follow-up item: COc1ccc(Cc2cnc(N)nc2N)cc1OC
Response: T

Prompt: Same again, this time with N#CSCSc1nc2ccccc2s1
Response: F

Prompt: Same question for C=CC(N)CCC(=O)O (stereo not given) please.
Response: T

Prompt: Then what about the molecule Cc1cccc(C)c1OCC(=O)NC(Cc1ccccc1)C(O)CC(Cc1ccccc1)NC(=O)C(C(C)C)N1CCCNC1=O (stereo not given) ?
Response: F

Prompt: Ok, now COc1cc(Cc2cnc(N)nc2N)cc(OC)c1OC
Response: T

Prompt: Input CN(C)CC1CCCCC1(O)c1cccc(O)c1 (stereo not given)
Response: T

Prompt: Let us now turn to Cn1cnc2c1c(=O)[nH]c(=O)n2C
Response: T

Prompt: And the next one, CC(C)NCC(O)COc1ccc(COCCOC(C)C)cc1 (stereo not given) ?
Response: F

Prompt: Please give the result for c1ccc2n[nH]nc2c1 too.
Response: F

Prompt: Moving on to the next molecule: CCC(C)C1OC2(CCC1C)CC1CC(CC=C(C)C(OC3CC(OC)C(OC4CC(OC)C(O)C(C)O4)C(C)O3)C(C)C=CC=C3COC4C(O)C(C)=CC(C(=O)O1)C34O)O2 (stereo not given)
Response: F

Prompt: Now consider c1cc2c(cc1CN1CCNCC1)OCO2 and answer again.
Response: T

Prompt: Again, but for NC(=O)c1cccnc1 [Nicotinamide]
Response: T

Prompt: Another molecule to look at: Nc1ncnc2c1ncn2C1OC(CO)C(O)C1O (stereo not given)
Response: T

Prompt: What would you report for NC1Cc2cc3c(cc2C1)OCO3 ?
Response: T

Prompt: Then this molecule: CCCCOc1ccc(CC(=O)NO)cc1
Response: F

Prompt: Another molecule to look at: CCOC(=O)c1ccccc1C(=O)OCC [Phthalate-Diethyl]
Response: F

Prompt: // repeat for N#CC1CCCN1C(=O)CNC12CC3CC(CC(O)(C3)C1)C2 (stereo not given) and report
Response: T

Prompt: Let us now turn to CCSCc1ccccc1OC(=O)NC
Response: F

Prompt: Can you check CC1CCc2cc(F)cc3c(=O)c(C(=O)O)cn1c23 (stereo not given) next?
Response: F

Prompt: Also, CN=C(NC#N)NCCSCc1nc[nH]c1C please.
Response: T

Prompt: Also CCNc1nc(Cl)nc(NC(C)C)n1 ?
Response: F

Prompt: And what about the molecule CCC1OC(=O)CC(O)C(C)C(OC2OC(C)C(OC3CC(C)(O)C(O)C(C)O3)C(N(C)C)C2O)C(CC=O)CC(C)C(=O)C=CC(C)=CC1COC1OC(C)C(O)C(OC)C1OC (stereo not given) ?
Response: F

Prompt: Ok, now C#CCN(C)C(C)Cc1ccccc1 (stereo not given)
Response: T

Prompt: Also CCC(C(N)=O)N1CCCC1=O (stereo not given) , if possible.
Response: T

Prompt: // query: COC(=O)Nc1nc2ccc(Sc3ccccc3)cc2[nH]1
Response: F

Prompt: CCCCCc1cc(O)c2c(c1)OC(C)(C)C1CCC(C)=CC21 (stereo not given) ?
Response: F

Prompt: Consider next the molecule CC(N)Cc1ccccc1 (stereo not given) in the same way.
Response: T

Prompt: Same question, COc1cc2c(c(OC)c1OC)-c1ccc(OC)c(=O)cc1C(NC(C)=O)CC2 (stereo not given) this time
Response: F

Data provenance: the RepoRT retention time repository (doi:10.1021/acs.analchem.2c02893)
